meta.source: a melting point compilation (Tetko et al.; mined from patent text by program, amines drawn as free bases though some values may be those of a salt)

Exercise: state measured melting point for each of the molecules provided.

Item `CCc1cccc(C)c1CNc1nc(C(=O)O)cn2c(C)c(C)nc12` has what recorded melting point? 230 °C

And for `C/C=C/[C@H](O)C[C@]1(C)CCc2c(C)c(OCc3ccccc3)c(C)c(C)c2O1` ? 68 to 70 °C

And for `CCCOc1cc(CO)n(Cc2ccc3ccccc3n2)n1` ? 90 to 91 °C

And for `C=CCc1cc2c(cc1O)CC(=O)N2CC` ? 130 to 131 °C

And for `CCOc1cc2c(Nc3cc(OC)c(Cl)cc3Cl)c(C#N)cnc2cc1OCCOC` ? 215 to 217 °C

* * *

Exercise: state measured melting point for each of the compounds provided.

Item `Cc1cc(C)c(N2CCCCC2)cc1NS(=O)(=O)C(F)(F)F` has what recorded melting point? 92 to 94 °C

And for `O=c1[nH]c2cc(Cl)ccc2n(CCO)c1=O` ? 295 °C

And for `COc1cc(Nc2c(C#N)cnc3cc4cc(OC)c(OCCN5CCC(O)CC5)cc4cc23)c(Cl)cc1Cl` ? 150 to 160 °C

And for `O=c1[nH]c2cc(Cl)cc(Cl)c2c(O)c1Sc1ccc(NS(=O)(=O)c2ccc(Cl)cc2)cc1` ? 270 to 274 °C

And for `CN(C(=O)c1cccs1)c1cccc(-c2nc(=O)c3ccccc3s2)n1` ? 192 to 193 °C

And for `COc1ccc(CNc2nc(Cl)c3ncn(Cc4ccc(OC)cc4)c3n2)cc1` ? 161 to 164 °C

And for `CSc1nn2c(N3CCN(c4ccccc4)CC3)cc(C)nc2c1S(=O)(=O)c1ccccc1` ? > 230 °C

And for `COc1cc(C=Cc2nc3c(c(=O)n(C)c(=O)n3C)n2C)cc(OC)c1` ? 228 to 230 °C

And for `Cc1cc(C(=O)c2cc(C(F)(F)F)cc(C(F)(F)F)c2)ccc1N(C)C` ? 145 to 147 °C

* * *

Exercise: state measured melting point for each of the molecules provided.

Item `COC(=O)[C@H](CCC(=O)O)N1C(=O)c2ccccc2C1=O` has what recorded melting point? 137 to 138 °C

And for CCC(Cl)CCC(=O)c1cc(OC)c(OC)cc1F (stereo unspecified) ? 81 to 82 °C

And for `CCNC(=O)c1ccc(-n2nnc(C(=O)NC3CC3)c2CSC)cc1` ? 192 °C

And for `CCc1nc(/C=C/c2cn(-c3ccccc3)nc2OCc2ccc(OCc3nc(-c4cccc(C(=O)O)c4)oc3C)c(OC)c2)cs1` ? 190 to 191 °C

And for `CSCC(=O)Nc1ccccc1` ? 100 °C

And for CC1CC(=O)NN=C1c1ccc(C2=NNC(=O)CC2C)cc1 (stereo unspecified) ? > 300 °C

And for `COC(=O)c1cccc(S(=O)(=O)Cc2c(O[C@H](Cn3ccnc3)c3ccccc3)ccc3c2CCCC3=O)c1` ? 85 °C

And for `NC(=O)C(OCc1ccc(-c2ccc(Cl)cc2)cc1)(C(F)(F)F)C(F)(F)F` ? 123 to 124 °C

And for `COC(=O)/C=C/c1cc(-c2ccc(S(C)(=O)=O)cc2)n(CC2CCCCC2)n1` ? 48 to 50 °C

And for CC1(C)CC(c2ccccc2)Nc2c(C(=O)O)cnn21 (single isomer, unassigned; (-)) ? 205 to 206 °C

And for O=C(NCCc1cccs1)C1CC2C=CC1C2 (stereo unspecified) ? 71 to 72 °C

And for `CSc1cc2c(cc1C(F)(F)F)N(C(=O)Nc1cccc(C(=O)NCCN(C)C)c1)CC2` ? 91 to 93 °C

And for C=CC(C)(CCC=C(C)C)OCC(=O)c1cc(C(C)C)c(O)c(C(C)C)c1 (stereo unspecified) ? 71 to 72 °C

And for `COCc1ccc(C#Cc2ccc3c(c2)C(C)(C)CCC3(C)C)cc1` ? 93 to 94 °C

And for `CCOC(=S)c1csc2nc(Cc3ccccc3)cn12` ? 83 to 84 °C

And for `CC(C)(C)c1ccc2sc3cc(-c4nnn[nH]4)ccc3c(=O)c2c1` ? 277 °C

And for `Cc1ccc(S(=O)(=O)O[C@H](C)COc2c(N)ccc(F)c2F)cc1` ? 37 to 38 °C

And for `CCc1c(Cc2[nH]c(Cc3[nH]c(C(=O)OCc4ccccc4)c(C)c3CC)c(CC)c2CC)[nH]c(C(=O)OCc2ccccc2)c1C` ? 211 °C

And for `Cc1ccc2[nH]c3c(c2c1)C(=O)CCC3` ? > 255 °C

And for `CS(=O)(=O)OCCc1c2ccccc2n2c1[nH]c(=O)c1ccccc12` ? 196 to 198 °C

And for `N#Cc1ccc(-c2ccc(-c3ccc(C#N)o3)cc2)cc1` ? 216 to 218 °C

* * *

Readout: melting point

Item `Cc1ccc2c(c1)c(N1CCN(C(=O)c3cccs3)CC1)c(C#N)c(=O)n2CCN1CCCC1` has what recorded melting point? 139 to 143 °C

And for `CCOc1ccc2cccnc2c1N` ? 94 to 95 °C

And for O=C(N[C@H](Cc1cccc(OC(F)(F)C(F)F)c1)[C@@H](O)c1ccnc(F)c1)c1cccc2c1C=CCCC2 (racemic) ? 159 to 160 °C

And for CCOC(=O)C(C)(C(C)=O)c1ccc([N+](=O)[O-])c(NC)c1C#N (centres undefined) ? 87 to 91 °C

And for `CCOC(=O)Cn1[nH]c(C)c(Cc2cc(Cl)cc(Cl)c2)c1=O` ? 183 to 184 °C

And for O=C(O)c1cccc(CC2COc3cc(O)ccc3C2=O)c1 (centres undefined) ? 234 to 236 °C

And for `COc1ccccc1NC(=O)Nc1nc(Nc2ccccc2-c2ccccc2)nc(N(CCC(=O)O)CCc2ccccn2)n1` ? 225 to 227 °C

And for O=C(N/C(=C\c1c[nH]c2ccccc12)C(=O)NCCc1ccccn1)OC1C2CC3CC(C2)CC1C3 (centres undefined) ? 188 to 200 °C

And for `N#Cc1cc(Cl)c(Cl)c(-c2ccc(Cl)cc2)n1` ? 142 to 145 °C

* * *

Exercise: state measured melting point for each of the molecules provided.

Item CN1c2ccccc2C2CCN(CCC(C(=O)N3CCCCCC3)c3ccccc3)CC21 (stereo not given) has what recorded melting point? 150 °C

And for `C=CC(=O)OCCCCCCCCOc1ccc(C(=O)O)cc1` ? 157 to 158 °C

And for `Cc1c2ccccc2c2c3c(cccc13)C(=O)OC2=O` ? 275 to 280 °C

And for `Cc1cc(C)c2sc(-c3ccccn3)nc(=O)c2c1` ? 245 to 246 °C

And for `C(=Cc1cncn1Cc1ccccc1)CC(c1ccccc1)c1ccccc1` ? 204 to 206 °C

* * *

Readout: melting point

Item `CCOC(=O)CN(CC(=O)OCC)[C@H]1CC[C@H](Nc2ncc3ncnc(Nc4ccc(F)c(Cl)c4)c3n2)CC1` has what recorded melting point? 155 to 157 °C

And for `CCOC(=O)NN=Cc1nc(Cc2ccccc2)[nH]c1C` ? 190 to 192 °C

And for `Cc1cc(O)c(S(=O)(=O)CC(C)C)c(=O)o1` ? 90 to 91 °C

And for `O=C1/C(=C/c2c[nH]c3ncc(Cl)cc23)N=C(Oc2ccccc2)N1c1ccccc1` ? 287 °C

And for Cn1ncc2c(c1=O)OCCNC2Cc1ccccc1 (stereo unspecified) ? 113 to 115 °C

And for COc1cc(OC)c2c3c(oc2c1)CC(C(=O)O)CC3 (stereo unspecified) ? 194 to 196 °C

And for `C[Si](C)(C)CCCCCCCNC(=O)n1cc(F)c(=O)[nH]c1=O` ? 118 to 119 °C

And for `CSc1nc(N)nc(SC)c1-c1ccc(Cl)cc1Cl` ? 164 to 165 °C

And for `COc1ccc(S(=O)(=O)Nc2onc(C)c2Br)cc1OC` ? 136 to 138 °C

And for `O=C(CCCN1CCN(c2ccccn2)CC1)c1cccnc1` ? 89 °C

And for CC(C(=O)O)c1ccc(-c2ccc(O)cc2)cc1 (stereo unspecified) ? 205 to 206 °C

And for `CC(C)(C#N)c1ccc(C(=O)C2CC2)cc1` ? 80 to 82 °C

And for `CCOCc1nc2c(N)nc3c(c2n1CCCNS(C)(=O)=O)CCCC3` ? 212 to 214 °C

And for `CC(=O)SCCNC(=O)[C@H](CS)NC(=O)C(C)C` ? 117 to 120 °C

And for O=C1CCC(CCC(=O)OCc2cccc(Cl)c2)N1 (stereo unspecified) ? 90 to 91 °C

And for `CCOC(=O)c1c(C)n(C)cc(-c2ccc(Cl)cc2)c1=O` ? 200 to 201 °C

And for `O=Cc1c(Br)nc(Sc2ccccc2)n1Cc1cc2c(cc1Cl)OCO2` ? 155 °C

And for `NCCCCn1cnc(-c2ccc(F)cc2)c1` ? 138 to 140 °C

And for `O=C(c1ccc(Cl)cc1)c1ccc(CBr)cc1` ? 103 to 104 °C

And for `CC1(C)Oc2ccc(OC(F)(F)F)cc2[C@@H](NC(=O)c2ccc(Cl)cc2[N+](=O)[O-])[C@@H]1O` ? 64 to 66 °C

And for Cn1c(SCC(=O)NCCC[N+](C)([O-])Cc2ccc(Cl)c(Cl)c2)nc2ccccc21 (stereo unspecified) ? 106 to 110 °C

And for `COc1ccc(OC)c(C(=O)C=Cc2cccc(C(=O)O)c2)c1` ? 152 to 155 °C

And for `O=c1c(Cl)c(-c2ccncn2)nc2n1CCCN2C[C@@H](O)c1ccccc1` ? 158 to 160 °C

And for `N#Cc1cc(-c2ccncn2)c[nH]c1=O` ? > 250 °C

And for `CCCCOc1ccc(C(=O)Nc2ccc3ccc(Cl)nc3n2)cc1` ? 140 °C

And for `COc1ccc2c(c1)CCc1cc(Nc3ccccc3N)ccc1C2=O` ? 200 °C

And for `COc1cc2c(cc1OC)CN(CCc1ccc([N+](=O)[O-])cc1)CC2` ? 118 to 119 °C

And for COc1ccc2[nH]cc(CCCN(CC3CC3)C3COc4c(F)ccc(C(N)=O)c4C3)c2c1 (stereo unspecified) ? 148 to 154 °C

And for `COc1ccc2cc(Br)ccc2n1` ? 93 to 96 °C

And for `O=C(NCCCCCCOC(=O)N1CCC(OC(=O)N2CCCCC2)CC1)Oc1ccc(Oc2ccccc2)cc1` ? 56 to 61 °C

And for `COCCN1CSC(=Cc2cc(C(C)(C)C)c(O)c(C(C)(C)C)c2)C1=O` ? 147 to 149 °C

And for `Cc1ncccc1OCC1(c2onc(-c3ccc(O)cc3)c2-c2ccccc2)CC1` ? 194 to 195 °C

And for COc1cc2c(cc1OC)C1c3ccccc3CCN1C2 (stereo unspecified) ? 186 °C

And for c1ccc2c(C3CNCCNCCNCCNCCN3)cccc2c1 (stereo unspecified) ? 87 to 88 °C

And for `CC(C)n1nc(C(=O)O)c2ccccc21` ? 160 to 163 °C

And for `O=C1C(=O)N(Cc2ccc(Br)cc2F)c2c1cccc2C(F)(F)F` ? 141 to 143 °C

And for `CN1CCN(c2cc(Cl)cc3c2c(=O)n(Cc2ccccc2)c(=O)n3Cc2ccccc2)CC1` ? 113 to 116 °C

And for CCOC(CC)c1ccc(Cl)c2nc3n(c12)CCCN3c1cnc(N(C)C)cc1C (stereo unspecified) ? 179 to 180 °C

And for `CCc1nn(-c2cc(NC(=O)CCOC)ccc2Cl)c(=O)n1Cc1ccc(-c2ccccc2S(=O)(=O)NC(=O)OC(C)(C)C)cc1F` ? 128 to 131 °C

And for `O=C(CNc1c(C(=O)O)[nH]c2cc(Cl)cc(Cl)c12)c1cccc(F)c1` ? 270 to 280 °C

And for `CC(C)(NC(=O)C1=C(C(=O)Nc2cc(OC3CCCC3)c(Cl)cc2F)CCCC1)c1cccc(Cl)c1` ? 222 to 226 °C
